- Tested on: Plasmodium berghei
- TEST_SUMMARY: Screen against P. berghei liver stage (PbLuc), transformed with Luciferase, at 10uM
- Assay type: functional, HepG2
- TEST_SETTINGS: tested at 10 uM
Hit rate of the full screen: of about 69,000 compounds, about 8,600 (12%) showed an effect of 50% or more. Many of the other results were omitted from the sample, so strong results are more common in it than they were.
METRIC_NAME: INHIBITION (%)

{"MOLECULE": "Cn1cc(CN2CCn3cc(Cn4cccn4)nc3C2)cn1", "TARGET_SYSTEM": "Plasmodium berghei", "METRIC_NAME": "INHIBITION", "NUMBER": -6.23}
{"MOLECULE": "N#Cc1ccc(Cl)cc1N1CCC(OC2CCOCC2)CC1", "TARGET_SYSTEM": "Plasmodium berghei", "METRIC_NAME": "INHIBITION", "NUMBER": 35.2}
{"MOLECULE": "CN(C)C(=O)CN1C[C@H]2CC[C@@H](C1)N(Cc1ccc3nsnc3c1)C2", "TARGET_SYSTEM": "Plasmodium berghei", "METRIC_NAME": "INHIBITION", "NUMBER": 33.8}
{"MOLECULE": "Cc1nc(CN2CCN(c3ccc4nncn4n3)C(C)C2)oc1C (centres undefined)", "TARGET_SYSTEM": "Plasmodium berghei", "METRIC_NAME": "INHIBITION", "NUMBER": 7.27}
{"MOLECULE": "Cc1nc(-c2ccco2)ccc1C(=O)NCCN1CCN(C)CC1", "TARGET_SYSTEM": "Plasmodium berghei", "METRIC_NAME": "INHIBITION", "NUMBER": 23.5}
{"MOLECULE": "Cc1cccc(C(C(=O)NCc2nc(-c3cccnc3)no2)N(C)C)c1 (centres undefined)", "TARGET_SYSTEM": "Plasmodium berghei", "METRIC_NAME": "INHIBITION", "NUMBER": 15.3}
{"MOLECULE": "COCC1CN(C(=O)Nc2cc(Cl)ccc2F)CCO1 (centres undefined)", "TARGET_SYSTEM": "Plasmodium berghei", "METRIC_NAME": "INHIBITION", "NUMBER": 8.13}
{"MOLECULE": "O=C(CN1CCN(c2ccc3nncn3n2)CC1)NC1CCCC1", "TARGET_SYSTEM": "Plasmodium berghei", "METRIC_NAME": "INHIBITION", "NUMBER": -0.219}
{"MOLECULE": "Cc1ccccc1C(C(=O)NCc1nc(-c2ncccn2)no1)N(C)C (centres undefined)", "TARGET_SYSTEM": "Plasmodium berghei", "METRIC_NAME": "INHIBITION", "NUMBER": -24.9}
{"MOLECULE": "CC1CN(CC2CCCCC2)CCN1c1ccc2nncn2n1 (centres undefined)", "TARGET_SYSTEM": "Plasmodium berghei", "METRIC_NAME": "INHIBITION", "NUMBER": 89.3}
{"MOLECULE": "Cn1cc(N2CCN(c3ccc(C#N)c(Cl)c3)CC2=O)cn1", "TARGET_SYSTEM": "Plasmodium berghei", "METRIC_NAME": "INHIBITION", "NUMBER": -11.6}
{"MOLECULE": "CNC(=O)[C@H]1C[C@@H]2CN(S(=O)(=O)c3cccc(F)c3)C[C@@H]2N1C", "TARGET_SYSTEM": "Plasmodium berghei", "METRIC_NAME": "INHIBITION", "NUMBER": -23.8}
{"MOLECULE": "COCC(=O)N1CCCC1c1ccc(C(=O)NCc2ccccc2Cl)s1 (centres undefined)", "TARGET_SYSTEM": "Plasmodium berghei", "METRIC_NAME": "INHIBITION", "NUMBER": -9.66}
{"MOLECULE": "Cc1c(CNC(=O)NCc2cccc(-n3cncn3)c2)cnn1C", "TARGET_SYSTEM": "Plasmodium berghei", "METRIC_NAME": "INHIBITION", "NUMBER": -40.4}
{"MOLECULE": "CC(C)c1[nH]c2ncccc2c1CN1CCOCC1", "TARGET_SYSTEM": "Plasmodium berghei", "METRIC_NAME": "INHIBITION", "NUMBER": -21.6}
{"MOLECULE": "CN1CCC(Cc2cccc(-c3cc(F)ccc3C(=O)O)n2)CC1", "TARGET_SYSTEM": "Plasmodium berghei", "METRIC_NAME": "INHIBITION", "NUMBER": 23.4}
{"MOLECULE": "Cn1cc(CN2CCC3(CC2)COC(COc2ccccn2)C3)cn1 (centres undefined)", "TARGET_SYSTEM": "Plasmodium berghei", "METRIC_NAME": "INHIBITION", "NUMBER": 30.3}
{"MOLECULE": "NC(=O)C1CN(c2ccc3c(Cl)ccnc3c2F)CCO1 (centres undefined)", "TARGET_SYSTEM": "Plasmodium berghei", "METRIC_NAME": "INHIBITION", "NUMBER": -22.4}
{"MOLECULE": "CCCC(N)CNS(=O)(=O)Cc1cccc(C#N)c1 (centres undefined)", "TARGET_SYSTEM": "Plasmodium berghei", "METRIC_NAME": "INHIBITION", "NUMBER": 39.3}
{"MOLECULE": "CCN1CCC2(COCc3c(C)nc(N(C)C)nc32)C1 (centres undefined)", "TARGET_SYSTEM": "Plasmodium berghei", "METRIC_NAME": "INHIBITION", "NUMBER": 2.59}
{"MOLECULE": "CC(C)CN1CCC2(CCN(CC3CC3)CC2)C1=O", "TARGET_SYSTEM": "Plasmodium berghei", "METRIC_NAME": "INHIBITION", "NUMBER": -7.24}
{"MOLECULE": "COCC1CN(c2ccc(Cl)cc2C#N)CCO1 (centres undefined)", "TARGET_SYSTEM": "Plasmodium berghei", "METRIC_NAME": "INHIBITION", "NUMBER": 53.4}
{"MOLECULE": "Clc1cnccc1N1CCC(OC2CCOCC2)CC1", "TARGET_SYSTEM": "Plasmodium berghei", "METRIC_NAME": "INHIBITION", "NUMBER": 48.5}
{"MOLECULE": "CC(=O)NCC1CN(c2ccc3c(Cl)ccnc3c2F)CCO1 (centres undefined)", "TARGET_SYSTEM": "Plasmodium berghei", "METRIC_NAME": "INHIBITION", "NUMBER": 23.8}

Reference for the values: ChEMBL document CHEMBL4513216
